# target.system: human sweat β-glucuronidase (Homo sapiens)
# Sequence (P08236 23-651): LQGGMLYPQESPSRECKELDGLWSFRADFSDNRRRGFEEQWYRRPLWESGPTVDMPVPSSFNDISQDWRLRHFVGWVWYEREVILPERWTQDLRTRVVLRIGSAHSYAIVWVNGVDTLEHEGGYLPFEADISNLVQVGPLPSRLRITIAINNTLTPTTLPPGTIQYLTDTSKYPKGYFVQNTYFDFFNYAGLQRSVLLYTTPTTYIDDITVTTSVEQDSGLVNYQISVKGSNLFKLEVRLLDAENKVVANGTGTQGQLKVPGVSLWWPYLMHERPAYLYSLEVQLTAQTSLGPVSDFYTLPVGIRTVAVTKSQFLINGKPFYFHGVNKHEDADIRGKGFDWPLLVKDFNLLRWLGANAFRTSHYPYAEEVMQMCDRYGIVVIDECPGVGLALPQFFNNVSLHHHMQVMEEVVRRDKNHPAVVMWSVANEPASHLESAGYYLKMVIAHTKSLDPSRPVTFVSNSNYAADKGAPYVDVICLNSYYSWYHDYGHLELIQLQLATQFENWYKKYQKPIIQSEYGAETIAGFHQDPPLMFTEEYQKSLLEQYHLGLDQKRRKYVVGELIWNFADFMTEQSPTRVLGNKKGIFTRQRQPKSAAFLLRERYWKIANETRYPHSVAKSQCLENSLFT
# test: Hydrolysis of model glucuronides by human sweat glucuronidase
# Type: biochemical
# stated.conditions: dialyzed human sweat, pH 5.0; initial rate; enzyme diluted so that PGA rates are equivalent
List of Hydrolysis of Glucuronides values.

[
  {
    "compound": "O=C1OC(c2ccc(O)cc2)(c2ccc(O[C@@H]3O[C@H](C(=O)O)[C@@H](O)[C@H](O)[C@H]3O)cc2)c2ccccc21 (stereo partly shown) [Phenolphthalein glucuronide, phenolphthalein glucuronide]",
    "result.comparator": "=",
    "Hydrolysis of Glucuronides [nmoles/hour/100 units]": 200
  },
  {
    "compound": "COC(=O)C(CO[C@@H]1O[C@H](C(=O)O)[C@@H](O)[C@H](O)[C@H]1O)c1ccccc1 (stereo partly shown) [Tropic acid methyl ester glucuronide]",
    "result.comparator": "=",
    "Hydrolysis of Glucuronides [nmoles/hour/100 units]": 2.6
  },
  {
    "compound": "CN1C2CC(OC(=O)C(COC(=O)c3ccc(OC4OC(C(=O)O)C(O)C(O)C4O)cc3)c3ccccc3)CC1C1OC12 (stereo not shown)",
    "result.comparator": "=",
    "Hydrolysis of Glucuronides [nmoles/hour/100 units]": 40
  },
  {
    "compound": "COC(=O)Cc1ccc(O[C@@H]2O[C@H](C(=O)O)[C@@H](O)[C@H](O)[C@H]2O)cc1",
    "result.comparator": "=",
    "Hydrolysis of Glucuronides [nmoles/hour/100 units]": 37
  },
  {
    "compound": "CCN(Cc1ccncc1)C(=O)C(COC(=O)c1ccc(O[C@@H]2O[C@H](C(=O)O)[C@@H](O)[C@H](O)[C@H]2O)cc1)c1ccccc1 (stereo partly shown)",
    "result.comparator": "=",
    "Hydrolysis of Glucuronides [nmoles/hour/100 units]": 36
  },
  {
    "compound": "CN1C2CC(OC(=O)C(COC3OC(C(=O)O)C(O)C(O)C3O)c3ccccc3)CC1C1OC12 [Scopolamine glucuronide, scopolamine O-β-D-glucuronide]",
    "result.comparator": "<",
    "Hydrolysis of Glucuronides [nmoles/hour/100 units]": 0.5
  },
  {
    "compound": "CCN(Cc1ccncc1)C(=O)C(CO[C@@H]1O[C@H](C(=O)O)[C@@H](O)[C@H](O)[C@H]1O)c1ccccc1 (stereo partly drawn) [Tropicamide glucuronide, tropicamide O-β-D-glucuronide]",
    "result.comparator": "=",
    "Hydrolysis of Glucuronides [nmoles/hour/100 units]": 1.6
  }
]

Where do these numbers come from? They come from patent US4546096A.
